system: M19-MEL melanoma; test: NCI tumour cell line growth inhibition, 48 h
Kindly supply the reported TGI values for the records listed here.

input: For the molecule O=C1c2ccccc2C(=O)c2nc3ccc(Cl)cc3cc21 , what TGI is on record?
output: > 100 µM

input: For the molecule Cc1ccc(NC(=O)CC(=O)N2N=C(N(CCC#N)c3cccc(C)c3)CC2c2ccccc2)cc1 (stereo not drawn) , what TGI is on record?
output: > 100 µM

input: For the molecule O=C(Nc1cccc(NC(=O)c2cc(=O)c3ccccc3o2)n1)c1cc(=O)c2ccccc2o1 , what TGI is on record?
output: > 100 µM

input: For the molecule COc1ccc2nc3ccccc3c(NCCCCN(C)CCCl)c2c1 , what TGI is on record?
output: 0.602 µM

input: For the molecule Nc1ccc(S(=O)(=O)Nc2cnc3c(Cl)cccc3n2)cc1 , what TGI is on record?
output: > 625 µM

input: For the molecule O=C1C=CC(=O)c2c(Cl)ccc(O)c21 , what TGI is on record?
output: 30 µM

input: For the molecule COC(=O)/C(=N\NC(N)=S)C(C#N)c1ccccc1 (stereo not drawn) , what TGI is on record?
output: > 100 µM

input: For the molecule CC1CC[C@]2(C(=O)O)CCC3(C)C(=CCC4[C@@]5(C)CC[C@H](OS(=O)(=O)c6ccccc6)C(C)(C)C5CC[C@]43C)[C@@H]2[C@H]1C (stereo partly drawn) , what TGI is on record?
output: > 100 µM
